- Tested on: A549-ACTB-RAB5A
- Protocol summary: phenotypically active (imaging signature differs from DMSO and reproducible) at any of 0.3-9 uM (binary (1 = active, 0 = inactive)); higher = active
- Experimental setup: treatment time: 24 h
Write down the outcome that applies. Available outcomes: T (active), F (inactive)

- COc1ccccc1-c1c[nH]c2ncc(-c3cncc(C(=O)N(C)C)c3)cc12: T
- Cc1cc(O)cc2c1C(=O)Oc1cc3c(c(O)c1O2)C(=O)OC3 [Variolaric acid]: F
- NCCCC[C@H](N[C@@H](CCc1ccccc1)C(=O)O)C(=O)N1CCC[C@H]1C(=O)O [lisinopril]: F
- c1ccc(CC2=NCCN2)cc1 [tolazoline]: F
- Cc1n[nH]c2ccc(-c3cncc(OC[C@@H](N)Cc4ccccc4)c3)cc12: T
- CC(C)(C)NCC(O)c1ccc(O)c(CO)c1 (stereo not given) [albuterol]: F
- C[C@]12CCC(=O)C=C1CC[C@@H]1[C@@H]2[C@@H](O)C[C@@]2(C)[C@H]1CC[C@]2(O)C(=O)CO [hydrocortisone]: T
- COc1cc(OC)c2c(=O)[nH]c(-c3cc(C)c(OCCO)c(C)c3)nc2c1 [apabetalone]: T

INPUT: Lab log entry: O=C1Cc2cc(CCN3CCN(c4nsc5ccccc45)CC3)c(Cl)cc2N1 [ziprasidone] — outcome as called in the assay?
OUTPUT: T

====

- Test system: HepG2-TUBA1B-RELA
- Protocol summary: lowest phenotypically active concentration; higher = less potent
- Experimental setup: treatment time: 24 h
I'd be grateful if you could share measured lowest phenotypically active concentration for these entries.
One number for each entry, in µM.

Examples with answers:
- Cc1cn(CCN2CCN(c3ccccc3-c3cc(C#N)cc(C(=O)NCCCN4CCCC4)c3)CC2)c2ccccc12: 3
- CC(=O)Nc1ccc(NC(=S)NC(=O)c2ccc(C(C)(C)C)cc2)cc1 [Tenovin-1]: 3
- CS(=O)(=O)c1cccc(CNc2nc(Nc3ccc4c(c3)CCC(=O)N4)ncc2C(F)(F)F)c1: 1

Count: 2. Required value per item: lowest phenotypically active concentration.
1. O=C(O)C[C@H](O)C[C@H](O)/C=C/c1c(C2CC2)nc2ccccc2c1-c1ccc(F)cc1 [Pitavastatin calcium]
2. OC[C@H]1O[C@@H](n2cnc3c(NCc4ccco4)ncnc32)[C@H](O)[C@@H]1O [Kinetin riboside]

OUTPUT:
[1, 1]

INPUT: Specify reported lowest phenotypically active concentration for the molecule shown: Cc1cc2nc(NCCCO)n(CC(=O)c3cc(C(C)(C)C)c(O)c(C(C)(C)C)c3)c2cc1C
OUTPUT: 9

====

- Tested on: WPMY1-TP53BP1-CLTA
- Protocol summary: phenotypically active (imaging signature differs from DMSO and reproducible) at any of 0.3-9 uM (binary (1 = active, 0 = inactive)); higher = active
- Experimental setup: treatment time: 24 h
Thanks in advance; please answer with one of these: active, inactive

Example entries begin here.
• N#Cc1cccc(-c2c[nH]c3ncnc(N4CCOCC4)c23)c1 = active
• C[C@H](NC(=O)[C@@H](O)c1cc(F)cc(F)c1)C(=O)N[C@@H]1C(=O)N(C)c2ccccc2-c2ccccc21 = inactive
• CNS(=O)(=O)CCc1ccc2[nH]cc(C3CCN(C)CC3)c2c1 = inactive
• CC(C(=O)O)c1cccc(C(=O)c2ccccc2)c1 (stereo not given) = inactive
• CCN(CCO)CCCC(C)Nc1ccnc2cc(Cl)ccc12 (stereo not given) [hydroxychloroquine] = inactive

INPUT: Given N#C/C(=C/c1ccc(-c2cc(Cl)ccc2Cl)o1)C(=O)Nc1cccc2ncccc12 , state the outcome it received in this test.
OUTPUT: inactive

INPUT: Any idea what this test logged for COc1ccc(Cl)cc1NC(=O)Nc1cc(C)nc2ccccc12 ?
OUTPUT: inactive

INPUT: Write down the call the test reported for this molecule. Item: CC(CN(C)C)CN1c2ccccc2CCc2ccccc21 (stereo not given)
OUTPUT: inactive

INPUT: Please let me know the test result on file for O=C(CCCc1ccc(-c2ccccc2F)cc1)Nc1ccc(O)cc1 .
OUTPUT: active

INPUT: Write down the call the test reported for this molecule. Item: COP(=O)(OC)OC(c1ccc(Cl)cc1)P(=O)(OC)OC (stereo not given)
OUTPUT: inactive

INPUT: // return assay outcome for O=S(=O)(N[C@H](CO)C(C(F)(F)F)C(F)(F)F)c1ccc(Cl)s1
OUTPUT: inactive

INPUT: Returns: the outcome recorded for O=C1NC(=O)/C(=C\c2cccc(C(F)(F)F)c2)S1 in this assay.
OUTPUT: inactive

INPUT: Entry CCOC(=O)C1=C(C)NC(=S)N[C@H]1c1cccc(O)c1 : call = ?
OUTPUT: inactive

INPUT: Just curious, what result did Cc1nc2sccn2c(=O)c1CCN1CCC(=C(c2ccc(F)cc2)c2ccc(F)cc2)CC1 get here?
OUTPUT: inactive

INPUT: Look up the recorded call for COc1cc2c(cc1NS(=O)(=O)c1ccc(Br)cc1C)n(C)c(=O)n2C in this test.
OUTPUT: inactive

INPUT: Which result was noted for this molecule in the test: CNCC[C@H](Oc1cccc2ccccc12)c1cccs1
OUTPUT: inactive

INPUT: Hello, I am checking results. What call was entered for COc1c(Nc2cc(C)[nH]n2)nc(Sc2ccc(S(=O)(=O)Cc3cccc([N+](=O)[O-])c3F)cc2F)nc1N1CCOCC1 ?
OUTPUT: active

INPUT: Please indicate how the test categorized COc1ccccc1OCC(O)CN1CCN(CC(=O)Nc2c(C)cccc2C)CC1 (stereo not given) .
OUTPUT: inactive

INPUT: # fetch the recorded call for Nc1nnc2[nH]c3ccccc3nc1-2 here
OUTPUT: inactive

INPUT: Give the logged outcome of this assay for the following molecule: CC(=O)OCC[N+](C)(C)C
OUTPUT: inactive

====

- Test system: A549-TP53BP1-CLTA
- Protocol summary: phenotypically active (imaging signature differs from DMSO and reproducible) at any of 0.3-9 uM (binary (1 = active, 0 = inactive)); higher = active
- Experimental setup: treatment time: 24 h
Parameter call: string, one of active, inactive

A selection of reference data follows.
- C[C@H]1C[C@@H]2[C@H]([C@@H](O)C[C@@]3(C)[C@H]2CC[C@]3(O)C(=O)CO)[C@@]2(C)C=CC(=O)C=C12 [methylprednisolone]: active
- COc1ccc2c(NC(=O)Nc3cccc(C(F)(F)F)n3)ccnc2c1: active
- CC(C)NCC(O)COc1cccc2ccccc12 (stereo not given) [propranolol]: inactive
- Cn1cc(CCn2cnc(-c3cnn(C)c3)c2-c2ccc(C#N)cc2)cn1: inactive

Moving on to another compound below.
INPUT: How was CC(C)c1ccc(-c2cc(=O)c3ccccc3o2)cc1 classified in this test?
OUTPUT: inactive

====

- Tested on: WPMY1-TP53BP1-CLTA
- Protocol summary: phenotypically active (imaging signature differs from DMSO and reproducible) at any of 0.3-9 uM (binary (1 = active, 0 = inactive)); higher = active
- Experimental setup: treatment time: 24 h
Thanks in advance; please answer with one of these: yes (1) for active, no (0) for inactive

Here's what some known entries look like.
* NS(=O)(=O)C#Cc1ccccc1 | no (0)
* NS(=O)(=O)c1cc2c(cc1C(F)(F)F)NC(Cc1ccccc1)NS2(=O)=O (centres undefined) [bendroflumethiazide] | no (0)

INPUT: What was the test verdict on CCC1(C)OC(=O)N(C)C1=O (centres undefined) ?
OUTPUT: no (0)

====

- Test system: WPMY1-ACTB-RAB5A
- Protocol summary: phenotypically active (imaging signature differs from DMSO and reproducible) at any of 0.3-9 uM (binary (1 = active, 0 = inactive)); higher = active
- Experimental setup: treatment time: 24 h
Where a name gives a salt, the structure may show the parent alone.
Select the correct class. Options are YES = active, NO = inactive and nothing else.

• Nc1nccc(-c2ccc3noc(-c4ccc(Cl)cc4)c3c2)n1 [PIM-1 Inhibitor 2] = YES
• CC1=NN(c2ccc(C(=O)O)cc2)C(=O)/C1=C\c1ccc(-c2cc(C)c(C)cc2[N+](=O)[O-])o1 = NO
• CC(COc1ccccc1)N(CCCl)Cc1ccccc1 (stereo not drawn) [phenoxybenzamine] = NO
• O=C(/C=C/c1ccc(O)c(O)c1)O[C@@H]1C[C@](O)(C(=O)O)C[C@@H](O)[C@H]1O [Chlorogenic acid] = NO
• COc1cc(OC)c2cc(-c3ccncc3)cnc2c1 [DMPQ dihydrochloride] = NO

INPUT: Recorded test call requested for CO[C@H]1C=CO[C@@]2(C)Oc3c(C)c(O)c4c(O)c(c(/C=N/N5CCN(C)CC5)c(O)c4c3C2=O)NC(=O)C(C)=CC=C[C@H](C)[C@H](O)[C@@H](C)[C@@H](O)[C@@H](C)[C@H](OC(C)=O)[C@@H]1C [Rifampicin]
OUTPUT: NO

INPUT: Returns: the outcome recorded for CC(CCc1ccc(O)cc1)NCCc1ccc(O)c(O)c1 (stereo not drawn) [Dobutamine hydrochloride] in this assay.
OUTPUT: NO

INPUT: Returns: the outcome recorded for NS(=O)(=O)c1cc2c(cc1Cl)NC(C1CC3C=CC1C3)NS2(=O)=O (stereo not drawn) [cyclothiazide] in this assay.
OUTPUT: NO
